Value source: paper PMC6270091

Counter-ions that a name gives are not always drawn.
Below is a list of entries, each paired with its recorded melting point value.

Worked cases, melting point given:
(Q) Given NCCC(CC(=O)O)c1ccc(Cl)cc1 (racemic) (as salt: hydrochloride) , state its recorded melting point.
(A) 201 to 203 °C

(Q) Another compound to check: CC(CCN)CC(=O)O (racemic) [Compound 1i, (R,S)-5-amino-3-methylpentanoic acid]
(A) 164 to 165 °C

(Q) Subsequent entry: COc1cccc(C(CCN)CC(=O)O)c1 (racemic) (as salt: hydrochloride)
(A) 182 to 184 °C

Shifting focus to the compound that follows.
(Q) Can you share its melting point? I mean this compound: NCCC(CC(=O)O)c1ccc(F)cc1 (racemic) (as salt: hydrochloride)
(A) 208 to 210 °C
